- tested-on: Glycogen phosphorylase, liver form (Homo sapiens)
- measurement-description: Inhibition of human liver GPa in presence of glucose

{"item-smiles": "O=C(/C=C/c1ccc(Cl)c(Cl)c1)NCCN1CCN(C(=O)Nc2ccc(Cl)c(Cl)c2)CC1", "IC50 / µM": 90}
{"item-smiles": "O=C(/C=C/c1ccc(Cl)c(Cl)c1)NCCCCCN1CCC(C(=O)Nc2ccc(Cl)c(Cl)c2)CC1", "IC50 / µM": 0.63}
{"item-smiles": "O=C(/C=C/c1ccccc1)NCCCCN1CCCN(C(=O)Nc2ccc(Cl)c(Cl)c2)CC1", "IC50 / µM": 0.17}
{"item-smiles": "O=C(/C=C/c1ccc(Cl)c(Cl)c1)NCCCCCN1CCN(C(=O)Nc2cccc(Cl)c2)CC1", "IC50 / µM": 51}
{"item-smiles": "O=C(/C=C/c1ccc(Cl)c(Cl)c1)NCCCCCN1CCN(C(=O)Nc2ccc(F)c(Cl)c2)CC1", "IC50 / µM": 0.98}
{"item-smiles": "O=C(/C=C/c1ccc(Cl)c(Cl)c1)NCCCCCCN1CCCN(C(=O)Nc2ccc(Cl)c(Cl)c2)CC1", "IC50 / µM": 24}
{"item-smiles": "O=C(/C=C/c1ccc(Cl)c(Cl)c1)NCCCCCN1CCN(C(=O)Nc2ccc(Cl)cc2)CC1", "IC50 / µM": 100}
{"item-smiles": "COc1cccc(NC(=O)N2CCCN(CCCCCNC(=O)/C=C/c3ccc(Cl)c(Cl)c3)CC2)c1", "IC50 / µM": 10}
{"item-smiles": "Cc1ccc(NC(=O)N2CCN(CCCCCNC(=O)/C=C/c3ccc(Cl)c(Cl)c3)CC2)cc1", "IC50 / µM": 100}
{"item-smiles": "O=C(/C=C/c1ccc(Cl)c(Cl)c1)NCCCCCCN1CCN(C(=O)Nc2ccc(Cl)c(Cl)c2)CC1", "IC50 / µM": 0.44}
{"item-smiles": "O=C(/C=C/c1ccc(Cl)c(Cl)c1)NCCCCN1CCN(C(=O)Nc2ccc(Cl)c(Cl)c2)CC1", "IC50 / µM": 0.71}
{"item-smiles": "O=C(/C=C/c1ccc(Cl)c(Cl)c1)NCCN1CCCN(C(=O)Nc2ccc(Cl)c(Cl)c2)CC1", "IC50 / µM": 100}
{"item-smiles": "O=C(/C=C/c1ccc(Cl)c(Cl)c1)NCCCCCN1CCCN(C(=O)Nc2ccc(Cl)cc2)CC1", "IC50 / µM": 51}
{"item-smiles": "COc1cccc(NC(=O)N2CCN(CCCCCNC(=O)/C=C/c3ccc(Cl)c(Cl)c3)CC2)c1", "IC50 / µM": 100}
{"item-smiles": "O=C(/C=C/c1ccc(Cl)c(Cl)c1)NCCCCCN1CCN(C(=O)Nc2ccc(Cl)c(Cl)c2)CC1", "IC50 / µM": 0.94}

====

- tested-on: Glycogen phosphorylase, liver form (Homo sapiens, UniProt P06737)
- measurement-description: Inhibition of human liver GPa in absence of glucose
parameter: IC50

{"item-smiles": "O=C(/C=C/c1ccc(Cl)c(Cl)c1)NCCCCCN1CCN(C(=O)Nc2ccc(Cl)c(Cl)c2)CC1", "result": "> 20 µM"}

====

- tested-on: Glycogen phosphorylase, liver form (Homo sapiens, UniProt P06737)
- Sequence (P06737 whole entry): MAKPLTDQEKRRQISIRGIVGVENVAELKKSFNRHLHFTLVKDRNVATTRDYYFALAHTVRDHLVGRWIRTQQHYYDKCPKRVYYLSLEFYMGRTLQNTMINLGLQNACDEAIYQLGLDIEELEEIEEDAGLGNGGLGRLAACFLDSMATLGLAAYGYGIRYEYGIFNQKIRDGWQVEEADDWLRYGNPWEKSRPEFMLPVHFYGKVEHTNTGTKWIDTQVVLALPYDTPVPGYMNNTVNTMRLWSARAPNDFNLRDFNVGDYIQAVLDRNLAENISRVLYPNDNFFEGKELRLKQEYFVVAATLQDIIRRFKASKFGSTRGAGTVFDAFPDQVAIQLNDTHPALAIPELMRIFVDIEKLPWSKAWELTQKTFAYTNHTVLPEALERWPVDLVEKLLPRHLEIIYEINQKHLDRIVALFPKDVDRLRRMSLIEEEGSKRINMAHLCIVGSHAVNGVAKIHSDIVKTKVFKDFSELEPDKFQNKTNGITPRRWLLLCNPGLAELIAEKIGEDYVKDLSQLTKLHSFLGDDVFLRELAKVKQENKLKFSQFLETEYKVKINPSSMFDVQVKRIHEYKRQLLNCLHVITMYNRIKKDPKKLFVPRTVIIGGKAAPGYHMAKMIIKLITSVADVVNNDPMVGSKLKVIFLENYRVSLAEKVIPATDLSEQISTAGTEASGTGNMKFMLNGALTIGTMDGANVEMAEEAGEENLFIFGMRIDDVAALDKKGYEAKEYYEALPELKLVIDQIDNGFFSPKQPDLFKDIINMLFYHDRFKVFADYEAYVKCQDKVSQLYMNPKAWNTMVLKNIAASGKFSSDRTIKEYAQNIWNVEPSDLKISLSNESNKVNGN
- measurement-description: Inhibition of human liver GPa in presence of glucose
Measured IC50 accompanies every entry in the list below.
parameter: IC50 (nM)

{"item-smiles": "O=C(/C=C/c1ccc(Cl)c(Cl)c1)NCCCCCN1CCCN(C(=O)Nc2cccc(Cl)c2)CC1", "tested-on": "Glycogen phosphorylase, liver form (Homo sapiens, UniProt P06737)", "number": 1300}
{"item-smiles": "O=C(/C=C/c1ccc(Cl)c(Cl)c1)NCCCCCN1CCN(C(=O)Nc2ccc(Cl)c(C(F)(F)F)c2)CC1", "tested-on": "Glycogen phosphorylase, liver form (Homo sapiens, UniProt P06737)", "number": 51000}
{"item-smiles": "O=C(/C=C/c1ccc(Cl)c(Cl)c1)NCCCCCN1CCN(C(=O)Nc2ccc3c(c2)OCO3)CC1", "tested-on": "Glycogen phosphorylase, liver form (Homo sapiens, UniProt P06737)", "number": 70000}
{"item-smiles": "O=C(/C=C/c1ccc(Cl)c(Cl)c1)NCCCCCN1CCCN(C(=O)Nc2ccc(Cl)c(Cl)c2)CC1", "tested-on": "Glycogen phosphorylase, liver form (Homo sapiens, UniProt P06737)", "number": 470}
{"item-smiles": "O=C(/C=C/c1ccc(Cl)c(Cl)c1)NCCCN1CCN(C(=O)Nc2ccc(Cl)c(Cl)c2)CC1", "tested-on": "Glycogen phosphorylase, liver form (Homo sapiens, UniProt P06737)", "number": 320}
{"item-smiles": "Cc1ccc(NC(=O)N2CCCN(CCCCCNC(=O)/C=C/c3ccc(Cl)c(Cl)c3)CC2)cc1", "tested-on": "Glycogen phosphorylase, liver form (Homo sapiens, UniProt P06737)", "number": 100000}
{"item-smiles": "O=C(/C=C/c1ccc(Cl)c(Cl)c1)NCCCCCN1CCCN(C(=O)Nc2ccc(F)c(Cl)c2)CC1", "tested-on": "Glycogen phosphorylase, liver form (Homo sapiens, UniProt P06737)", "number": 720}
{"item-smiles": "O=C(/C=C/c1ccc(Cl)c(Cl)c1)NCCCCCN1CCCN(C(=O)Nc2ccc(Cl)c(C(F)(F)F)c2)CC1", "tested-on": "Glycogen phosphorylase, liver form (Homo sapiens, UniProt P06737)", "number": 1600}

Hey, just so you know, these numbers are from ChEMBL document CHEMBL1139703.
